Listed here: items and their measured IC50.
target: recombinant Human Phosphodiesterase B2 (PDE4B2) (Homo sapiens, UniProt Q07343); assay: Human Phosphodiesterase B2 Radiometric Assay; type: biochemical; conditions: 0.1 μg/mL recombinant PDE4B2; preincubated at 30 C for 30 min; [3H]cyclic AMP 8 nM, stopped after 20 min; yttrium silicate SPA beads; read-out: PDE4B2 pIC50 (converted)
Sequence (Q07343 1-564 isoform Q07343-2): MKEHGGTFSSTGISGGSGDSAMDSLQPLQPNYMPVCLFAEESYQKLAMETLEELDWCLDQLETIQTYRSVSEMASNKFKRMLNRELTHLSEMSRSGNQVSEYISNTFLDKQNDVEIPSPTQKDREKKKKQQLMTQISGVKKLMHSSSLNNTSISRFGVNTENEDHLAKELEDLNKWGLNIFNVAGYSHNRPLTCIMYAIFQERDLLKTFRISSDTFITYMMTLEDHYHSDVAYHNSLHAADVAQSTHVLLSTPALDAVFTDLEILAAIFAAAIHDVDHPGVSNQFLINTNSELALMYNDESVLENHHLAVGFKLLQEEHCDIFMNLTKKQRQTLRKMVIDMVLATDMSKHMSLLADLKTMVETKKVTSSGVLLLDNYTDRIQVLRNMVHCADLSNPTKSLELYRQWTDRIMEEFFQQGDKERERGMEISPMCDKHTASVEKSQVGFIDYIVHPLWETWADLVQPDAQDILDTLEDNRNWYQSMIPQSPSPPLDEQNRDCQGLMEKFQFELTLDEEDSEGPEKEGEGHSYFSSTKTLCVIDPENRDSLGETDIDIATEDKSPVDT
Respond with the bare value in nM.

Cc1nc(C(=O)N[C@H]2CC[C@@H](NC(=O)c3cc(F)cnc3Oc3cccc(-c4ccc(O)cc4CN4CCCCCC4)c3)CC2)cs1    0.316
Cc1nc(C(=O)N[C@H]2CC[C@@H](NC(=O)c3cc(F)cnc3Oc3cccc(-c4ccc(O)cc4CN4CCOCC4)c3)CC2)cs1    0.0251
O=C(N[C@H]1CC[C@@H](NC(=O)c2cc(F)cnc2Oc2cccc(-c3ccc(CN4CCNCC4)cc3)c2)CC1)c1cc2n(n1)CCCC2    0.158
C[C@@H]1CN(CCc2ccc(-c3cccc(Oc4ncc(F)cc4C(=O)N[C@H]4CC[C@@H](NC(=O)c5ccn(C)n5)CC4)c3)cc2)C[C@H](C)N1    0.0398
Cc1cccc(CN[C@H]2CC[C@@H](NC(=O)c3cc(F)cnc3Oc3cccc(-c4ccc(O)cc4CN4CCOCC4)c3)CC2)n1    3.16

Here is another compound to look at.
If you can, please state the reported IC50 value of `C[C@@H]1CN(Cc2cc(-c3cccc(Oc4ncc(F)cc4C(=O)N[C@H]4CC[C@@H](NC(=O)c5cc6n(n5)CCCC6)CC4)c3)ccc2O)C[C@H](C)N1` .
0.0631

src = patent US8273774B2
